Test: Log P by HPLC on reversed phase columns (EEC directive 79/831 Annex V.A8; methods [a], [b], [c])
Assay type: physicochemical
readout.kind: LogP

Exercise: Looking for the measured LogP of C=CC(C)C(O)(Cn1cncc1C#N)C1(F)CC1 (centres unmarked) [I-375] , can you help?
Solution: 1.94^[a]

Exercise: Also need Cc1ccc(Oc2ccc(C(O)Cn3cncc3Cl)c(Cl)c2)cc1 (centres unmarked) [I-02] , thanks.
Solution: 2.50^[a]

Exercise: Consider next the compound C#CC(O)(Cn1cncc1C#N)C1(Cl)CC1 (centres unmarked) [I-670] in the same way.
Solution: 1.36^[a]

Exercise: Again, but for COC(Cn1cncc1C#N)c1ccc(Oc2ccc(Br)cc2)cc1F (centres unmarked) [I-55]
Solution: 3.79^[a]

Exercise: Please answer likewise for COC(=O)COC(Cn1cncc1C#N)c1ccc(Oc2ccc(Br)cc2)cc1C(F)(F)F (centres unmarked) [I-94]
Solution: 3.99^[a]

Exercise: # repeat for N#Cc1cncn1CC(O)(c1ccc(Cl)c(Cl)c1F)C1(F)CC1 (centres unmarked) [I-638]
Solution: 2.58^[a]

Exercise: One more compound: N#Cc1cncn1CC(O)(c1cc(F)cc(F)c1Cl)C1(Cl)CC1 (centres unmarked) [I-619]
Solution: 2.33^[a]

Exercise: Entry to check: N#Cc1cncn1CC(O)(c1ccc(C2CC2C2CC2)cc1Cl)C1(F)CC1 (centres unmarked) [I-388]
Solution: 3.60^[a]

Exercise: Follow-up entry: COc1ccc(Oc2ccc(C(O)Cn3cncc3Cl)c(Cl)n2)c(Cl)c1 (centres unmarked) [I-16]
Solution: 2.23^[a]

Exercise: Repeat with OC(Cn1cncc1F)(c1ccc(Br)cc1Cl)C1(F)CC1 (centres unmarked) [I-430]
Solution: 1.76^[a]

Exercise: Now try CCCC(C)C(O)(Cn1cncc1C#N)c1ccc(Cl)cc1 (single isomer, unassigned) [I-327] .
Solution: 3.08^[a]

Exercise: Again, but for N#Cc1cncn1CC(O)(c1ccc(Cl)cc1Br)C1CC1 (centres unmarked) [I-405]
Solution: 2.80^[a]

Exercise: Then this compound: COC(C)(Cn1cncc1C#N)c1ccc(Oc2ccc(Br)cc2)cc1C(F)(F)F (centres unmarked) [I-296]
Solution: 4.51^[a]

Exercise: Same question, OC(C#CCC1CCCCC1)(Cn1cncc1C(F)(F)F)C1(Cl)CC1 (centres unmarked) [I-601] this time
Solution: 4.05^[a]

Exercise: Moving on to the next compound: OC(Cn1cncc1F)c1ccc(Oc2ccc(Cl)cc2)cc1Cl (centres unmarked) [I-46]
Solution: 2.28^[a]

Exercise: Next compound: CC(O)(Cn1cncc1C#N)c1ccc(Oc2ccc(Cl)cc2F)nc1C(F)(F)F (centres unmarked) [I-279]
Solution: 3.14^[a]

Exercise: Same thing, different compound: OC(Cn1cncc1Cl)c1ccc(Oc2ccc(Cl)cc2)cc1Cl (centres unmarked) [I-01]
Solution: 2.64^[a]

Exercise: Queued: N#Cc1cncn1CC(O)(c1ccc(F)cc1Br)C1CCC1 (centres unmarked) [I-449]
Solution: 2.86^[a]

Exercise: Moving on to the next compound: CCOC(Cn1cncc1C#N)c1ccc(Oc2ccc(Br)cc2)cc1C(F)(F)F (centres unmarked) [I-91]
Solution: 4.69^[a]

Exercise: N#Cc1cncn1CC(O)(C#Cc1ccc(Cl)cc1)C1(Cl)CC1 (centres unmarked) [I-322] ?
Solution: 2.96^[a]
